system: OVCAR-4; experiment: Tested for in vitro cytotoxicity against ovarian cancer cell line OVCAR-4; type: functional; settings: Homo sapiens
GI50 reference
Enter your answer as a number in µM; do not include the unit.

Known value: OVCAR-4 GI50 of the compound O=c1c2ccccc2nc2n1CCc1c-2[nH]c2cc3c(cc12)OCO3 equals 1.5

Here O=c1c2ccccc2nc2n1CCc1c-2[nH]c2ccccc12 was tested on OVCAR-4, and its GI50 came to 18.9
